Entry source: ChEMBL document CHEMBL1201862

The reader will find reported GI50 values listed item by item below.
# Test system: SK-OV-3
# protocol description: NCI tumour cell line growth inhibition, 48 h
Active and inactive are the calls of the source. Cut-off read from the data, not from the text of the source: active = GI50 up to about 1.1 µM and inactive = higher.

>>> print(df.to_string())
                               input_smiles               result
0  CN(C)CCc1c2c(nc3ccccc13)C(=O)c1cccnc1C2=O    0.479 µM (active)
1      O=C1NC(N2CCOCC2)=N/C1=C\c1ccc(Cl)cc1  > 100 µM (inactive)

Input: So what GI50 did Cc1ccc(C2=C(c3ccccc3)C(O)(c3ccc(C)cc3)C(c3ccccc3)=C2c2ccc(C)cc2)cc1 get with SK-OV-3?
Output: > 100 µM (inactive)

* * *

The reader will find reported GI50 values listed item by item below.
# System: SF-295
# protocol description: NCI tumour cell line growth inhibition, 48 h
Active and inactive are the calls of the source. Cut-off read from the data, not from the text of the source: active = GI50 up to about 1.1 µM and inactive = higher.

Sample answers from the record:
                                   molecule               result
0  CC(=O)O[C@H]1CCC2[C@@H]3CCC4Nc5c(cnn5-c5ccccc5)C[C@]4(C)C3CC[C@@]21C (stereo partly drawn)   2.97 µM (inactive)
1  COc1ccccc1CC1(O)OC(=O)c2ccccc21 (stereo not drawn)  > 100 µM (inactive)

Kindly consider the entry below.
Input: Requested field: GI50. Item: O/N=C1/C(=C/c2ccc(Br)cc2)CCCC1C(NO)c1ccc(Br)cc1 (stereo not drawn)
Output: 16.7 µM (inactive)

* * *

# System: OVCAR-3
# protocol description: NCI tumour cell line growth inhibition, 48 h
Calls of active or inactive are those of the source. Cut-off read from the data, not from the text of the source: active = GI50 up to about 1.1 µM and inactive = higher.
The reader will find reported GI50 values listed item by item below.

Sample answers from the record:
In [3]: df
Out[3]:
                                   molecule  target_desc               result
0                     C#CC[N+](C)(CC#C)CC#C      OVCAR-3  > 100 µM (inactive)
1            CCOC(=O)CC(=O)C(=O)NN=C1NCCCN1      OVCAR-3  > 100 µM (inactive)
2  O=C(C1=C(C(=O)c2ccccc2)SC2(S1)C(C(=O)c1ccccc1)=C(C(=O)c1ccccc1)Sc1c2ssc1=O)c1ccccc1      OVCAR-3   67.6 µM (inactive)

Input: Requested field: GI50. Item: C[Si](C)(N[Si](C)(C)OCCc1ccccc1)OCCc1ccccc1
Output: > 100 µM (inactive)

Input: Requested field: GI50. Item: COC1C(=O)N(SC)C1c1ccccc1Cl (configuration not stated)
Output: 19.6 µM (inactive)

Input: Requested field: GI50. Item: CCOP(=O)(OCC)C(c1ccc(F)cc1)N(C(=O)NC(F)(F)F)c1ccc(OC)cc1 (configuration not stated)
Output: > 100 µM (inactive)

Input: Requested field: GI50. Item: CC12c3c4ccc(C=O)c3Oc3ccc(C=O)c(c31)Oc1ccc(C=O)c(c12)O4
Output: > 25 µM (inactive)

* * *

# System: SW-620
# protocol description: NCI tumour cell line growth inhibition, 48 h
The source made the active and inactive calls. No stated cut-off is given here; in the data, active = GI50 up to about 1.1 µM and inactive = higher.
Your answer must be one of the following: active, inactive

For orientation, consider the following solved cases.
compound	class label
CC[C@@H](CCCC[C@@H]1CC[C@H]2CC(=O)C[C@@H]12)OC	inactive
CCCCNC(=S)c1ccc(OC(=O)Nc2ccc(Cl)cc2)cc1	inactive
O=C1CCCc2c(O)ccc(O)c21	inactive
Cc1cc(N(CCC#N)CCC#N)ccc1/C=C1N=C(/C=C\c2ccccc2)N(c2ccc(Cl)cc2)C\1=O	inactive
c1ccc2c(c1)nc1n2CCSC1	inactive

Input: Outcome logged for Cc1nc2sc(C(=O)c3ccc(Cl)cc3)c(N)c2c(-c2ccccc2Cl)c1C(=O)Nc1ccccc1 in this assay:
Output: inactive

Input: Outcome logged for O/N=C1/C(=C/c2ccc(Br)cc2)CCCC1C(NO)c1ccc(Br)cc1 (configuration not stated) in this assay:
Output: inactive

Input: Outcome logged for CCOC(=O)c1ccc(/N=C\c2ccc(N(CCC#N)CCC#N)cc2)cc1 in this assay:
Output: inactive
